- System: U251 CNS
- test name: NCI tumour cell line growth inhibition, 48 h
value kind: TGI (µM)
Form entry: value (µM) — number only.

structure smiles	measured number
CS(=O)(=O)Nc1ccc(Nc2c3ccccc3nc3cc(N)ccc23)cc1	1.3

Item: O=C1/C(=C/c2ccc(O)c(O)c2)COc2ccc(-c3ccccc3)cc21 Test system: U251 CNS Read-out: TGI Value: ? 3.38

Query TGI on U251 CNS for COc1ccc2nc(C)cc(NCCCCCCCCCNc3cc(C)nc4ccc(OC)cc34)c2c1 5.77

I'm curious: which TGI was measured for CCCCCCCc1c(Cl)nc(Cl)nc1Cl tested on U251 CNS? 9.89

GET /values?readout=TGI&system=U251 CNS&item= COc1ccc(/C(Cl)=C(\C=O)c2ccc(Cl)c(Cl)c2)cc1 18.4

The values you see were collected from PubChem BioAssay (NCI).
